molecules and their reported EC50
target: S1P1 (Homo sapiens); test: 35S-GTPγS binding, S1P1 membranes; conditions: membranes from CHO cells expressing S1P1; 60 min 30° C.
Sequence (P21453 whole entry, species assumed): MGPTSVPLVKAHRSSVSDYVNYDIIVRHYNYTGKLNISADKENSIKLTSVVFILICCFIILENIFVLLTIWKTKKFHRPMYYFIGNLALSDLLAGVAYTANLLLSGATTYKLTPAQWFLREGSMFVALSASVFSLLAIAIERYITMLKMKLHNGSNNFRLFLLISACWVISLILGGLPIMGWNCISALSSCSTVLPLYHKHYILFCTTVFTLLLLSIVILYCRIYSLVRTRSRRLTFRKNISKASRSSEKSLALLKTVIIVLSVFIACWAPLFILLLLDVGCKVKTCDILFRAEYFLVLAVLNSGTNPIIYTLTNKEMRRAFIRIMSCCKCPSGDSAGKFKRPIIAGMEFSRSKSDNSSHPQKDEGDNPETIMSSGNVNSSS
Structures can show the parent of a compound that is named as a salt.
Quick reminder: number only, in µM, skip the unit.

1) COCc1cc(-c2nc(-c3cccc(CNCCC(=O)OC)c3)no2)ccc1-c1ccccc1C [Example 145]
0.0023

Query (molecule): Cc1ccccc1-c1ccc(-c2nc(-c3ccc(O)c(C(=O)O)c3)no2)cc1C [Example 43] ; field requested: EC50
4.36

Query (molecule): COCc1cc(-c2nc(-c3cccc(CN(C)CCO)c3)no2)ccc1-c1ccccc1C [Example 186, Hydrochloride salt] ; field requested: EC50
0.0011

Query (molecule): COCc1cc(-c2nc(-c3ccc(C(=O)O)c(F)c3)no2)ccc1-c1ccccc1OC [Example 79] ; field requested: EC50
0.208

Query (molecule): COCc1cc(-c2nc(-c3cccc(CNCCO)c3)no2)ccc1-c1ccccc1C [Example 187, Hydrochloride salt] ; field requested: EC50
0.002

Query (molecule): Cc1cc(-c2nc(-c3ccc(C(=O)O)c(F)c3)no2)ccc1-c1ccccc1C(F)(F)F [Example 8] ; field requested: EC50
0.85

Query (molecule): Cc1ccccc1-c1ccc(-c2nc(-c3ccc(C(=O)O)c(F)c3)no2)cc1OCC(C)C [Example 104] ; field requested: EC50
0.8
